Tested on: ATP;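 also: ATP exposure 15 min at 22 °C before imaging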
Assay: switch fluorescence ratio, 500 uM ATP over buffer (Cy3 cluster intensity, sum of 5 cycles each) (fold (ratio)); higher = stronger signal-on switching upon ATP binding; sequences stand for … in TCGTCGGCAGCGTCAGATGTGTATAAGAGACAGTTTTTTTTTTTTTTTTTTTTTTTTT…TC
Conditions: aptamer strand: ATP DNA aptamer (quencher-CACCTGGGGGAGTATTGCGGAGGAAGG + anchor), 100 nM annealed; ATP concentration: 500 uM
valueKind: switch fluorescence ratio
Give bare numbers.

Please review the entries below; each comes with its answer.
- sequenceText: "TGTTTTAGG"
  valueKind: "switch fluorescence ratio"
  assayResult: 0.998
- sequenceText: "CGATGTGGGT"
  valueKind: "switch fluorescence ratio"
  assayResult: 0.989
- sequenceText: "AGGTGTTATC"
  valueKind: "switch fluorescence ratio"
  assayResult: 0.993

# return switch fluorescence ratio for each item in the list
1. CGTGCGTCGG
2. GTGCGGGGCG
3. TTGGGAAAAT
4. AGAAGGCGGC

Found:
1: 1.01; 2: 1.02; 3: 1.01; 4: 1

###

Tested on: ATP;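 also: ATP exposure 15 min at 22 °C before imaging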
Assay: switch fluorescence ratio, 500 uM ATP over buffer (Cy3 cluster intensity, sum of 5 cycles each) (fold (ratio)); higher = stronger signal-on switching upon ATP binding; sequences stand for … in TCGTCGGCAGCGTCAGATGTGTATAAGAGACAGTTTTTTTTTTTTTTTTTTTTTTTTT…TC
Conditions: aptamer strand: ATP DNA aptamer (quencher-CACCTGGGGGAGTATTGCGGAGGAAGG + anchor), 100 nM annealed; ATP concentration: 500 uM
valueKind: switch fluorescence ratio

- sequenceText: "GGGGATGGTA"
  switch fluorescence ratio: 0.978
- sequenceText: "TTTGGAGGCT"
  switch fluorescence ratio: 1.02
- sequenceText: "GCCTTTTTTT"
  switch fluorescence ratio: 0.991
- sequenceText: "TAATAAGAGA"
  switch fluorescence ratio: 0.985
- sequenceText: "ACATCACTAA"
  switch fluorescence ratio: 1.31

# return switch fluorescence ratio for each item in the list
1. AGGGTCCGAG
2. TGAGCTAATG
3. AGAGGCTAGG
4. GATATTGGCG
5. GGGGGTATCC
6. TTAAGATATT
7. TTTAGGGGAC

Found:
1: 1; 2: 1.04; 3: 1.01; 4: 0.956; 5: 1.03; 6: 0.98; 7: 1

# return switch fluorescence ratio for each item in the list
1. ATTAGAGGTT
2. AGAGTCCGCT
3. AATCGGAGCA
4. GTAAGGATGT

Found:
0.99
1.18
1.35
0.988

# return switch fluorescence ratio for each item in the list
1. ATTTTGGTGA
2. CAAGTCTAGA
3. TAAGCCGAGG
4. GTTGGGCCCA
5. GAATATAGTG
6. TGGTGGGGTT
7. CGGCGAGATA

Found:
1: 1; 2: 0.995; 3: 0.987; 4: 1; 5: 1.02; 6: 0.984; 7: 1.01

###

Test system: ATP;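 also: ATP exposure 15 min at 22 °C before imaging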
Assay: switch fluorescence ratio, 500 uM ATP over buffer (Cy3 cluster intensity, sum of 5 cycles each) (fold (ratio)); higher = stronger signal-on switching upon ATP binding; sequences stand for … in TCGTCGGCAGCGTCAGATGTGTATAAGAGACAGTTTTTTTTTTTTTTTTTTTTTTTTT…TC
Settings: aptamer strand: ATP DNA aptamer (quencher-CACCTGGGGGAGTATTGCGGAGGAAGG + anchor), 100 nM annealed; ATP concentration: 500 uM
Please go through the items and note down their switch fluorescence ratio.
Answers are plain numbers.

Please review the entries below; each comes with its answer.
- sequenceText: "TTTGGAATCG"
  switch fluorescence ratio: 1.01
- sequenceText: "TGGTTAGTTG"
  switch fluorescence ratio: 0.994
- sequenceText: "GGTGAGGCTG"
  switch fluorescence ratio: 0.996
- sequenceText: "CGTTTCAAGG"
  switch fluorescence ratio: 0.975
- sequenceText: "TCAGACATCG"
  switch fluorescence ratio: 1.01

# return switch fluorescence ratio for each item in the list
1. GGTTTGGCGT
2. AAATGAAAAA
3. GATGTACCGC
4. CGGAGTAACG

Found:
0.981
0.99
1.12
1.04

# return switch fluorescence ratio for each item in the list
1. TCATAAAAGC
2. TCGTTATTCG
3. GAGTCGGGGT
4. TCTGTATTCG
5. GCCGGGAGGA
6. GGGGACCTAT

Found:
0.99
0.979
1.01
1
1.01
1.02

# return switch fluorescence ratio for each item in the list
1. GGTCGCAACC
2. TTCCTATGTT
3. GCGGGGCGGG

Found:
[1.04, 0.991, 1.02]

# return switch fluorescence ratio for each item in the list
1. TTATTGGAAT
2. CGGTGGTGAT

Found:
1: 1; 2: 1.01

###

Please go through the items and note down their switch fluorescence ratio.
Tested on: ATP;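 also: ATP exposure 15 min at 22 °C before imaging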
Assay: switch fluorescence ratio, 500 uM ATP over buffer (Cy3 cluster intensity, sum of 5 cycles each) (fold (ratio)); higher = stronger signal-on switching upon ATP binding; sequences stand for … in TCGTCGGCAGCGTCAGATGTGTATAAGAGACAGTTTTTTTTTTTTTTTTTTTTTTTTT…TC
Conditions: aptamer strand: ATP DNA aptamer (quencher-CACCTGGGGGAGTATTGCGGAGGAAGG + anchor), 100 nM annealed; ATP concentration: 500 uM
Numbers only.

- sequenceText: "CGACATCGGA"
  switch fluorescence ratio: 1.02
- sequenceText: "TTTTTATATT"
  switch fluorescence ratio: 1.21
- sequenceText: "ATGCTGATGT"
  switch fluorescence ratio: 1.02
- sequenceText: "TAGGCGTGCG"
  switch fluorescence ratio: 0.976
- sequenceText: "TGTTTAAAGG"
  switch fluorescence ratio: 1.02
- sequenceText: "GGCTTATTTT"
  switch fluorescence ratio: 1
- sequenceText: "GCAGTTGTGT"
  switch fluorescence ratio: 0.994
- sequenceText: "CTGGGGGTA"
  switch fluorescence ratio: 0.989

# return switch fluorescence ratio for each item in the list
1. TTTTTGCGAT
2. GAAGTAGGCG
3. ATGAATTTTT
4. ATTCGTATTT

Found:
1. 0.998
2. 1.03
3. 0.992
4. 0.987

# return switch fluorescence ratio for each item in the list
1. GGAGAAATGT
2. TAGTGGGCGA
3. GAGCAGGGCC
4. TTCCTGTTTC
5. TTTGGGAATT
6. GTTGGTCTAC

Found:
1. 0.998
2. 1.01
3. 0.982
4. 1.01
5. 1.03
6. 1.04

# return switch fluorescence ratio for each item in the list
1. CCATGGGGGT
2. GTAGTATGCA

Found:
[1.16, 1.01]

# return switch fluorescence ratio for each item in the list
1. AGGTTGTGGG
2. TACCTAATTA
3. CGGTACGAAT

Found:
1: 1.02; 2: 1.04; 3: 1.03

###

Tested on: ATP;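 also: ATP exposure 15 min at 22 °C before imaging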
Assay: switch fluorescence ratio, 500 uM ATP over buffer (Cy3 cluster intensity, sum of 5 cycles each) (fold (ratio)); higher = stronger signal-on switching upon ATP binding; sequences stand for … in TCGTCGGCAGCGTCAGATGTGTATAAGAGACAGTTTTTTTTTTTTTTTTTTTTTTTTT…TC
Settings: aptamer strand: ATP DNA aptamer (quencher-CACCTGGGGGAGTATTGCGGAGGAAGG + anchor), 100 nM annealed; ATP concentration: 500 uM
Please go through the items and note down their switch fluorescence ratio.
Give bare numbers.

Please review the entries below; each comes with its answer.
- sequenceText: "TTCAGGGAGG"
  switch fluorescence ratio: 1
- sequenceText: "CTAGTGTCTC"
  switch fluorescence ratio: 0.989
- sequenceText: "AGCCATTATT"
  switch fluorescence ratio: 0.976
- sequenceText: "CGGAAGGCTT"
  switch fluorescence ratio: 0.982
- sequenceText: "TTGGGGCACT"
  switch fluorescence ratio: 0.985

# return switch fluorescence ratio for each item in the list
1. TAATAAGTTT
2. TTTAGGGAGG
3. GAGGGGCATG
4. TCTACGGCGT
5. CCGTGCCGTT
6. TAGATGCTTT
7. GCGATTGGGG

Found:
1: 1.03; 2: 0.974; 3: 1.01; 4: 0.999; 5: 0.948; 6: 0.965; 7: 0.97

###

System: ATP;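 also: ATP exposure 15 min at 22 °C before imaging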
Experiment: switch fluorescence ratio, 500 uM ATP over buffer (Cy3 cluster intensity, sum of 5 cycles each) (fold (ratio)); higher = stronger signal-on switching upon ATP binding; sequences stand for … in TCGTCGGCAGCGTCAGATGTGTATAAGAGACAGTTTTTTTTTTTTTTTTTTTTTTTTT…TC
Settings: aptamer strand: ATP DNA aptamer (quencher-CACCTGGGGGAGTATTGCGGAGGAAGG + anchor), 100 nM annealed; ATP concentration: 500 uM
valueKind: switch fluorescence ratio
Answers are plain numbers.

Please review the entries below; each comes with its answer.
- sequenceText: "GAAGGGGCGA"
  switch fluorescence ratio: 0.972
- sequenceText: "TTAGACGAGC"
  switch fluorescence ratio: 0.986
- sequenceText: "TGGTGGTGCA"
  switch fluorescence ratio: 1.04
- sequenceText: "TCGAGGGAAG"
  switch fluorescence ratio: 0.998
- sequenceText: "GCGGCGGGGG"
  switch fluorescence ratio: 0.99

# return switch fluorescence ratio for each item in the list
1. TCCCCTGTCG
2. ATTCCGGGAG
3. AGTTTTATTT
4. ATAGGTCCGG
5. ACCCTTCTGC
6. GAGCTAGGAT
7. TTTCTTGCGG
8. GTTGGAAGCA

Found:
[1.07, 1.07, 0.968, 0.996, 1.15, 0.985, 1.01, 1.1]
